Record form. Attribute: EC50. Fill in for each entry.
Tested on: NIH3T3
protocol: Survival effect on NGF-dependent mouse NIH/3T3 cells expressing TrkA assessed as cell viability after 2 days by MTT assay
Type: functional
condition info: NIH3T3, 48 h, read-out: ED50 (the source's name)
Numeric only. Scale: µg/mL

# get_value(readout='EC50', item= C=C1[C@H](OC(C)=O)[C@@H](OC(=O)c2ccccc2)[C@@H](OC(=O)c2cccnc2)C(C)(C)[C@H]2O[C@](O)([C@H](C)C2=O)[C@@]2(OC(C)=O)C[C@H](C)[C@H](OC(C)=O)[C@@H]2[C@H]1OC(C)=O [KANSUININ D] ) 0.55

Do the same for C=C1[C@H](OC(C)=O)[C@@H](OC(=O)c2ccccc2)[C@@H](OC(=O)c2cccnc2)C(C)(C)[C@H]2O[C@@H]2[C@@H](C)C(=O)[C@@]2(OC(C)=O)C[C@H](C)[C@H](OC(C)=O)[C@@H]2[C@H]1OC(C)=O [KANSUININ E] please 0.23

Do the same for C=C1[C@H](OC(C)=O)[C@@H](OC(=O)c2ccccc2)[C@@H](OC(C)=O)C(C)(C)[C@H]2O[C@](O)([C@H](C)C2=O)[C@@]2(OC(C)=O)C[C@H](C)[C@H](OC(C)=O)[C@@H]2[C@H]1OC(C)=O [KANSUININ A] please 7.92
